Hello, the source for this data is patent US20210318322A1, in case you need it.

Target: T1, human VISTA expressed on cells (human, UniProt Q9H7M9 33-295)
T1 sequence: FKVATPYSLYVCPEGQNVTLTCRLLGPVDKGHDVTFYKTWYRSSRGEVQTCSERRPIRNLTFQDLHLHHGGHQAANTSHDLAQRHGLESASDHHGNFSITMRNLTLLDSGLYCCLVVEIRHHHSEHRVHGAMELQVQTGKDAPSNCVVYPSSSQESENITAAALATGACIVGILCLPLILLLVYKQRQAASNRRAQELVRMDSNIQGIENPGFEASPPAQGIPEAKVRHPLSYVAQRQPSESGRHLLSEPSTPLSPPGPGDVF
Experiment: cell-based or functional assay
parameterMeasured: IC50, IFN-gamma in the MLR

Look over these answered cases.
binder	IC50, IFN-gamma in the MLR
VSTB95 (antibody, human IgG1, kappa, V domains shown, also called S16; INX Code 16) VH: EVQLVESGGGLVQPGGSLRLSCAASGFTFRNYGMSWVRQAPGKGLEWVASIISGGSYTYYPDSVKGRFTISRDNAKNSLYLQMNSLRAEDTAVYYCARIYDHDGDYYAMDYWGQGTTVTVSS VL: DIVMTQSPLSLPVTPGEPASISCRSSQSIVHSNGNTYLEWYLQKPGQSPQLLIYKVSNRFSGVPDRFSGSGSGTDFTLKISRVEAEDVGVYYCFQGSHVPWTFGQGTKLEIKR	0.22 log10 of antibody concentration
VSTB53 (antibody, human IgG1, kappa, V domains shown, also called S43; INX Code 43) VH: QVQLVQSGAEVKKPGASVKVSCKASGYTFTHYTIHWVRQAPGQGLEWMGYIIPSSGYSEYNQKFKDRVTMTRDTSTSTVYMELSSLRSEDTAVYYCARGAYDDYYDYYAMDYWGQGTLVTVSS VL: DIVMTQSPLSLPVTPGEPASISCRSSQTIVHSNGNTYLEWYLQKPGQSPQLLIYKVSNRFSGVPDRFSGSGSGTDFTLKISRVEAEDVGVYYCFQASHVPWTFGQGTKLEIKR	0.27 log10 of antibody concentration
VSTB60 (antibody, human IgG1, kappa, V domains shown, also called S47; INX Code 47) VH: QVQLVQSGSELKKPGASVKVSCKASGYTFTNYGMTWVRQAPGQGLEWMGWINTYTGESTYADDFKGRFVFSLDTSVSTAYLQICSLKAEDTAVYYCARDYYGIYVSAYWGQGTLVTVSS VL: DIVMTQTPLSLSVTPGQPASISCRASESVDNYANSFMHWYLQKPGQSPQLLIYRASNLESGVPDRFSGSGSGTDFTLKISRVEAEDVGVYYCQQSHEDPYTFGQGTKLEIKR	0.4 log10 of antibody concentration

Problem: Identify IC50, IFN-gamma in the MLR associated with the binder VSTB50 (antibody, human IgG1, kappa, V domains shown, also called S41; INX Code 41) VH: QVQLVQSGSELKKPGASVKVSCKASGYTFTNYGLNWVRQAPGQGLEWMGWINPYTGEPTYADDFKGRFVFSLDTSVSTAYLQICSLKAEDTAVYYCAREGYGNYIFPYWGQGTLVTVSS VL: DIVMTQTPLSLSVTPGQPASISCRASESVDTYANSLMHWYLQKPGQPPQLLIYRASNLESGVPDRFSGSGSGTDFTLKISRVEAEDVGVYYCQQTNEDPRTFGQGTKLEIKR
Result: 0.06 log10 of antibody concentration
